- target_or_test_system: human TLR7 (Homo sapiens, UniProt Q9NYK1)
- Sequence (Q9NYK1 27-1049): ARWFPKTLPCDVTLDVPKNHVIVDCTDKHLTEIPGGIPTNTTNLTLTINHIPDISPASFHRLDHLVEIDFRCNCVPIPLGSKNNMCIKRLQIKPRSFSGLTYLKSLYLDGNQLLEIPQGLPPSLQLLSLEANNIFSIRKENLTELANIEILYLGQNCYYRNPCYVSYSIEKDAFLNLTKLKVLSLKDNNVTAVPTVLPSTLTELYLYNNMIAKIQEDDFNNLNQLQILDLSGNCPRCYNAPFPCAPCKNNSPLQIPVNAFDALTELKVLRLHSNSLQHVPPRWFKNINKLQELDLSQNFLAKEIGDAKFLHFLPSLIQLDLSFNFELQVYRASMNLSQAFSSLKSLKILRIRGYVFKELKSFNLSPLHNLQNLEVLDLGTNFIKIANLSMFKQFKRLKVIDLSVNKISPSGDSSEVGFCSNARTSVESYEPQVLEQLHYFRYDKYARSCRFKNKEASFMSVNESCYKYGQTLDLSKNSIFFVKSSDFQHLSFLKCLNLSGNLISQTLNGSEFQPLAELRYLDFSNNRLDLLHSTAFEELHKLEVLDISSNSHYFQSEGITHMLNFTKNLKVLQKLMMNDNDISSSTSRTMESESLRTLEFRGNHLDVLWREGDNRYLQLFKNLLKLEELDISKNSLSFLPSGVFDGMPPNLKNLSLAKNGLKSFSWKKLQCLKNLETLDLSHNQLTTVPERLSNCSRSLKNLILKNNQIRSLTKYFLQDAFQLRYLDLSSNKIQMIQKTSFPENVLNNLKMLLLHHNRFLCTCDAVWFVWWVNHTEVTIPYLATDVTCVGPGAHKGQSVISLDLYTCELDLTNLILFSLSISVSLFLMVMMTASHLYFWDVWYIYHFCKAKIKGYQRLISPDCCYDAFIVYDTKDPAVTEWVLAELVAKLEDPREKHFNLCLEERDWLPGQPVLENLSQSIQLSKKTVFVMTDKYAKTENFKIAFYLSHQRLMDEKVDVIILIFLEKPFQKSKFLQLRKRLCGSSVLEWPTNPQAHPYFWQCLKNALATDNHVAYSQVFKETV
- assay_remarks: TLR7 inhibition reporter assay (HEK-Blue cells, SEAP reporter, gardiquimod stimulation)
- test_parameters: HEK-Blue cells overexpressing human TLR7, SEAP reporter, gardiquimod 7.5 μM
log10 of IC50 values for the compounds below.
Give log10 of IC50, with IC50 taken in nM.

compound="COc1cc(-c2[nH]c3ccc(CCC4CN(CC(C)(C)O)C4)cc3c2C(C)C)cn2ncnc12 [Example 441]" measured_result=0.30
compound="CNC(=O)CN1CC(c2ccc3[nH]c(-c4cc(OC)c5ncnn5c4)c(C(C)C)c3c2)C1 [Example 263]" measured_result=0.30
compound="Cc1c(-c2[nH]c3ccc(C4CCC(NC5CC5)CC4)cc3c2C(C)C)cn2ncnc2c1C (centres unmarked) [Example 14]" measured_result=0.70
compound="COc1ccc(CNC2CCC(c3ccc4[nH]c(-c5cc(C)nc(C)c5)c(C(C)C)c4c3)CC2)cc1 (single isomer, unassigned) [Example 50]" measured_result=1.83
compound="Cc1c(-c2[nH]c3ccc(C4CC(N(C)CCS(C)(=O)=O)C4)cc3c2C(C)C)cn2ncnc2c1C (centres unmarked) [Example 586]" measured_result=1.11

Which log10 of IC50 value is on record for COc1cc(-c2[nH]c3ccc(C4CCC(NCC(F)F)CC4)cc3c2C(C)C)cn2ncnc12 (single isomer, unassigned) [Example 67] ? -0.77

Quick one: log10 of IC50 of Cc1c(-c2[nH]c3ccc(C4CCC(N5CC6(COC6)C5)CC4)cc3c2C(C)C)cn2ncnc2c1C (centres unmarked) [Example 113] ? 0.00

Recorded log10 of IC50 for Cc1c(-c2[nH]c3ccc(C4CN(Cc5c[nH]nn5)C4)cc3c2C(C)C)cn2ncnc2c1C [Example 551] , please? 0.30

Consider the compound shown here: CNC1CCC(c2ccc3[nH]c(-c4cc(C)nc(C)c4)c(C(C)C)c3c2)CC1 (single isomer, unassigned) [Example 52] What is its recorded log10 of IC50? -0.38

What log10 of IC50 value was documented for this compound, Cc1cc(-c2[nH]c3ccc(C4CCC(N(C)CC(=O)N(C)C)CC4)cc3c2C(C)C)cn2ncnc12 (single isomer, unassigned) [Example 178] ? -0.64

* * *

- target_or_test_system: human TLR9 (Homo sapiens)
- Sequence (Q9NR96 26-1032): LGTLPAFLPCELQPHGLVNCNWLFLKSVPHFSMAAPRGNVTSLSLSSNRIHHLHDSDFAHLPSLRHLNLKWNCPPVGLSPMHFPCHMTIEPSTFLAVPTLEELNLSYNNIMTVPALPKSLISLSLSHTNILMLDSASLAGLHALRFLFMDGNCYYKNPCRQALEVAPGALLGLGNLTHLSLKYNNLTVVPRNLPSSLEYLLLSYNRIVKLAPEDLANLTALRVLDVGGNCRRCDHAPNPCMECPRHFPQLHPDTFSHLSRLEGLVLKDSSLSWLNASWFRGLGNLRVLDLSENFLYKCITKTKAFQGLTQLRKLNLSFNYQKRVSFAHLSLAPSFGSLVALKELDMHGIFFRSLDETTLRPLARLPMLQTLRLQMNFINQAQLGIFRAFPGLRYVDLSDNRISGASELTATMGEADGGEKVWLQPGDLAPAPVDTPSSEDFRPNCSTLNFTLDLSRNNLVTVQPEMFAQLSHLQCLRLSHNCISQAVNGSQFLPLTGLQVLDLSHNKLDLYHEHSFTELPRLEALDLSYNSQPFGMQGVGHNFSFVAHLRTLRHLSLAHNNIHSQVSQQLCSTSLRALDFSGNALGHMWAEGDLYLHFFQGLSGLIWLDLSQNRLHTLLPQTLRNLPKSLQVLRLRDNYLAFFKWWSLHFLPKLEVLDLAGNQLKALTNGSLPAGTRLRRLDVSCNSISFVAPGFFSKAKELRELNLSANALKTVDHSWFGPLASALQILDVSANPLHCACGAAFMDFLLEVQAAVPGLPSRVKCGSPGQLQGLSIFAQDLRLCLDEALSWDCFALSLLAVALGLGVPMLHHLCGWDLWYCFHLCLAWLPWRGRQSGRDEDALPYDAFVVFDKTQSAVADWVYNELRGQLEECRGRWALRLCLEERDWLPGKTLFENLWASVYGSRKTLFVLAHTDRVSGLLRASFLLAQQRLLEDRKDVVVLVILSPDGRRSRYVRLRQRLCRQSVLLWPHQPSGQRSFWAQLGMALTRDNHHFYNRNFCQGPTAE
- assay_remarks: TLR9 inhibition reporter assay (HEK-Blue cells, SEAP reporter, ODN2006 stimulation)
- test_parameters: HEK-Blue cells overexpressing human TLR9, SEAP reporter, ODN2006 5 nM
Form field: IC50 (one value per entry).
Express it in µM; write the number only.

compound="Cc1cc(-c2[nH]c3ccc([C@@H]4C[C@H]4C(=O)NC4CC5CCN4CC5)cc3c2C(C)C)ccn1 (some centres unmarked) [Example 461]" measured_result=0.467
compound="COc1cc(-c2[nH]c3ccc(C4CCC(NC5COC5)CC4)cc3c2C(C)C)cn2ncnc12 (centres unmarked) [Example 64]" measured_result=3.03
compound="Cc1cc(-c2[nH]c3ccc(C4CN(C(=O)CN(C)C)CCO4)cc3c2C(C)C)cn2ncnc12 (centres unmarked) [Example 331]" measured_result=3.62

Could you tell me which IC50 is on file for COc1cc(-c2[nH]c3ccc(C4CCC(N5CCCC(F)(F)C5)CC4)cc3c2C(C)C)cn2ncnc12 (centres unmarked) [Example 34] ? 20.5

Tell me the measured IC50 of COc1cc(-c2[nH]c3ccc(C4CC5CN(CC(=O)N(C)C)CC5C4)cc3c2C(C)C)cn2ncnc12 (centres unmarked) [Example 509] , please. 2.34

Could you share which IC50 value was measured for COc1cc(-c2[nH]c3ccc(C4CC(N(C)CCS(C)(=O)=O)C4)cc3c2C(C)C)cn2ncnc12 (centres unmarked) [Example 583] ? 31

// returns reported IC50 for input Cc1cc(-c2[nH]c3ccc(C4CCC(NC5COC5)CC4)cc3c2C(C)C)cc(C)n1 (centres unmarked) [Example 61] 0.201

IC50 for COc1cc(-c2[nH]c3ccc(C4CCCN(CC(=O)N(C)C)C4)cc3c2C(C)C)cn2ncnc12 (centres unmarked) [Example 224] ? 1.83

Data request, read-out IC50, for Cc1cc(-c2[nH]c3ccc(C4CCC(C(=O)N5CCCCC5)CC4)cc3c2C(C)C)cn2ncnc12 (single isomer, unassigned) [Example 159] 28.6

Please look up its IC50: COc1cc(-c2[nH]c3ccc(C4CCC(N(C)C(C)C)C4)cc3c2C(C)C)cn2ncnc12 (single isomer, unassigned) [Example 278] 1.41

What value of IC50 has been recorded for this entry: COc1cc(-c2[nH]c3ccc(C4CCCN(C5COC5)C4)cc3c2C(C)C)cn2ncnc12 (centres unmarked) [Example 240] 11.6

// IC50 lookup, key: Cc1cc(-c2[nH]c3ccc(C4CN(C(=O)CN(C)C)CCO4)cc3c2C(C)C)cc(C)n1 (centres unmarked) [Example 335] 0.729
